Target: human APJ receptor (Homo sapiens (Human))
Sequence (P35414 whole entry): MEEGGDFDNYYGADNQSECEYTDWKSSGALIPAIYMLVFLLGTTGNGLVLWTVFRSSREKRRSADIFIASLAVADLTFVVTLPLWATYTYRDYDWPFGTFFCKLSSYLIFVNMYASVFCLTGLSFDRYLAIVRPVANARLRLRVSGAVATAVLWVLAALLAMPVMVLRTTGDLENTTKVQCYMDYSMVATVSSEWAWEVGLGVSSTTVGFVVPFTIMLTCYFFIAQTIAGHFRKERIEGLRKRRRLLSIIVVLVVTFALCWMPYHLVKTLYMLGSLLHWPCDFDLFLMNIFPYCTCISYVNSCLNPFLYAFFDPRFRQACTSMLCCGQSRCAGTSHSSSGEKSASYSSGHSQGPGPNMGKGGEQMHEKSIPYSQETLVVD
Assay: [35S]GTPγS binding assay on membranes from CHO cells stably expressing human APJ receptor
Assay type: biochemical
Conditions: [35S]GTPγS SPA, read-out: Activity hAPJ SPA EC50 IP
pEC50: −log10 of the molar value.
measured_parameter: pEC50

molecule	measured_parameter	quantitative_readout
COc1cccc(OC)c1-n1c(NS(=O)(=O)CCc2ncc(Cl)cn2)nnc1C1CCC1	pEC50	7.82
COc1cccc(OC)c1-n1c(NS(=O)(=O)[C@@H](C)[C@H](OC)c2ncc(Cl)cn2)nnc1[C@H]1C[C@H](C(F)(F)F)C1 (single isomer, unassigned) [Example 149.0]	pEC50	8.38
COc1ncnc(OC)c1-n1c(NS(=O)(=O)[C@@H](C)[C@H](OC)c2ncc(Cl)cn2)nnc1[C@H]1CC1(F)F (single isomer, unassigned) [Example 100.0]	pEC50	6.85
COc1cccc(OC)c1-n1c(NS(=O)(=O)[C@@H](C)[C@@H](OC(C)C)c2ncc(C)cn2)nnc1C1CCC1	pEC50	8.29
COCC1(n2c(NS(=O)(=O)[C@@H](C)[C@H](OC)c3ncc(Cl)cn3)nnc2[C@H]2C[C@H](CO)C2)CC1 (single isomer, unassigned) [Example 133.0]	pEC50	6.92
COc1ncnc(OC)c1-n1c(NS(=O)(=O)[C@@H](C)[C@H](OC)c2ncc(Cl)cn2)nnc1C1CC(C)(C)C1	pEC50	8.51
COc1cccc(OC)c1-n1c(NS(=O)(=O)[C@@H](C)[C@H](OC)c2ncc(Cl)cn2)nnc1[C@H]1C[C@H](Cl)C1 (single isomer, unassigned) [Example 153.0]	pEC50	8.82
COc1cccc(OC)c1-n1c(NS(=O)(=O)[C@@H](C)[C@H](OC)c2ncc(Cl)cn2)nnc1[C@H]1C[C@H](Cl)C1 (single isomer, unassigned) [Example 154.0]	pEC50	9.74
COc1cccc(OC)c1-n1c(NS(=O)(=O)[C@@H](C)[C@H](OC)c2ncc(Cl)cn2)nnc1[C@H]1CC[C@@H](C#N)CC1 (single isomer, unassigned)	pEC50	8.09
COc1ncnc(OC)c1-n1c(NS(=O)(=O)[C@@H](C)[C@H](OC)c2ncc(Cl)cn2)nnc1[C@@H]1CC[C@@H]1F (single isomer, unassigned) [Example 179.0]	pEC50	7.34
COCC(COC)n1c(NS(=O)(=O)[C@@H](C)[C@H](OC)c2ncc(Cl)cn2)nnc1[C@H]1C[C@H](CO)C1 (single isomer, unassigned) [Example 131.0]	pEC50	6.96
COc1cccc(OC)c1-n1c(NS(=O)(=O)[C@@H](C)[C@H](OC)c2ncc(Cl)cn2)nnc1[C@H]1C[C@H](C(F)(F)F)C1 (single isomer, unassigned) [Example 150.0]	pEC50	8.17
COc1cccc(OC)c1-n1c(NS(=O)(=O)[C@@H](C)[C@H](OC)c2ncc(Cl)cn2)nnc1C1CCC1	pEC50	9.04
COc1cccc(OC)c1-n1c(NS(=O)(=O)[C@@H](C)[C@@H](OC(C)C)c2ncc(C)cn2)nnc1[C@@H]1CCC[C@@H]1OC (single isomer, unassigned) [Example 235.0]	pEC50	6.82
COc1cccc(OC)c1-n1c(NS(=O)(=O)[C@@H](C)[C@H](C)c2ncc(C)cn2)nnc1[C@H]1C[C@H](Cl)C1 (single isomer, unassigned) [Example 193.0]	pEC50	8.00
COc1ncnc(OC)c1-n1c(NS(=O)(=O)[C@@H](C)[C@H](OC)c2ncc(Cl)cn2)nnc1C1CCCCC1	pEC50	8.12
COc1cccc(OC)c1-n1c(NS(=O)(=O)[C@@H](C)[C@H](C)c2cnc(C)cn2)nnc1C1CCC1	pEC50	7.54
COc1cccc(OC)c1-n1c(NS(=O)(=O)[C@@H](C)[C@H](OC)c2ncc(Cl)cn2)nnc1C12CC(C1)C2	pEC50	8.13
COc1ncnc(OC)c1-n1c(NS(=O)(=O)[C@@H](C)[C@H](OC)c2ncc(Cl)cn2)nnc1[C@H]1CC[C@@H]1F (single isomer, unassigned) [Example 181.0]	pEC50	7.49
COc1ncnc(OC)c1-n1c(NS(=O)(=O)[C@@H](C)[C@H](OC)c2ncc(Cl)cn2)nnc1[C@H]1CC1(F)F (single isomer, unassigned) [Example 101.0]	pEC50	7.22
COc1ncnc(OC)c1-n1c(NS(=O)(=O)[C@@H](C)[C@H](OC)c2ncc(Cl)cn2)nnc1C1CC1	pEC50	7.96
COc1ncnc(OC)c1-n1c(NS(=O)(=O)[C@@H](C)[C@H](C)c2ncc(F)cn2)nnc1C1CCC1	pEC50	7.97
COc1cccc(OC)c1-n1c(NS(=O)(=O)[C@@H](C)[C@H](OC)c2ncc(Cl)cn2)nnc1[C@H]1C[C@@](C)(F)C1 (single isomer, unassigned) [Example 195.0]	pEC50	8.59

This collection of values is drawn from patent US11020395B2.
